FYI, the data here is from ChEMBL document CHEMBL4028905.

Species on record: Homo sapiens
Assay method text: Selectivity ratio of IC50 for His tagged recombinant BRD4 bromodomain 1 (unknown origin) to IC50 for His tagged recombinant CBP (unknown origin)
Property label: Ratio IC50

[[record]]
molecule_smiles = "CN1C(=O)CCc2ccc(N3CCCc4cc(-c5cnn(C)c5)c(C(F)F)cc43)cc21"
result = "> 530"

[[record]]
molecule_smiles = "CNC(=O)Nc1cc(OC)cc(N2CCCc3cc(-c4cnn(C)c4)c(C(F)F)cc32)n1"
result = "> 170"

[[record]]
molecule_smiles = "CC(=O)N1CCc2c(cc(N3CCCc4cc(-c5cnn(C)c5)c(C(F)F)cc43)c(=O)n2C)C1"
result = "> 430"

[[record]]
molecule_smiles = "COC(=O)c1c[nH]c2ccccc12"
result = "> 1"

[[record]]
molecule_smiles = "CCOC(=O)c1cnc2ccc(C(=O)OC)cc2c1Nc1cccc(C(=O)O)c1"
result = "> 87"


====

Assay system: Bromodomain-containing protein 4 (Homo sapiens, UniProt O60885)
Assay method text: Inhibition of His tagged recombinant BRD4 bromodomain 1 (unknown origin) by TR-FRET assay
Property label: IC50

[[record]]
molecule_smiles = "CCOC(=O)c1cnc2ccc(C(=O)OC)cc2c1Nc1cccc(C(=O)O)c1"
result = "> 20 µM"

[[record]]
molecule_smiles = "CNC(=O)Nc1cc(OC)cc(NC(=O)NS(=O)(=O)c2cc(C)c(CCOC)s2)n1"
result = "> 20 µM"

[[record]]
molecule_smiles = "Cn1c(=O)sc2cc(N)ccc21"
result = "> 100 µM"

[[record]]
molecule_smiles = "CNC(=O)c1cnn2ccc(N3CCCc4cc(-c5cnn(C)c5)c(C(F)F)cc43)nc12"
result = "> 20 µM"


====

Assay system: Bromodomain-containing protein 4 (Homo sapiens)
Assay method text: Inhibition of His tagged recombinant BRD4 bromodomain 1 (unknown origin) by TR-FRET assay
Property label: IC50

[[record]]
molecule = "CNC(=O)Nc1cc(OC)cc(N2CCCc3cc(-c4cnn(C)c4)c(C(F)F)cc32)n1"
assay_system = "Bromodomain-containing protein 4 (Homo sapiens)"
result = "> 20 µM"

[[record]]
molecule = "CNC(=O)c1cnn2c(C3CCCN3)ccnc12 (stereo not drawn)"
assay_system = "Bromodomain-containing protein 4 (Homo sapiens)"
result = "> 84 µM"

[[record]]
molecule = "CNC(=O)c1ccc2nccc(N3CCCc4cc(-c5cnn(C)c5)c(C(F)F)cc43)c2c1"
assay_system = "Bromodomain-containing protein 4 (Homo sapiens)"
result = "> 20 µM"


====

Assay system: Bromodomain-containing protein 4 (Homo sapiens, UniProt O60885)
Assay method text: Inhibition of His tagged recombinant BRD4 bromodomain 1 (unknown origin) by TR-FRET assay
pIC50: −log10 of the molar value.
Property label: pIC50

[[record]]
molecule_smiles = "CN1C(=O)CCc2ccc(N3CCCc4cc(-c5cnn(C)c5)c(C(F)F)cc43)cc21"
assay_system = "Bromodomain-containing protein 4 (Homo sapiens, UniProt O60885)"
result = "< 4.70"

[[record]]
molecule_smiles = "CC(=O)N1CCc2c(cc(N3CCCc4cc(-c5cnn(C)c5)c(C(F)F)cc43)c(=O)n2C)C1"
assay_system = "Bromodomain-containing protein 4 (Homo sapiens, UniProt O60885)"
result = "< 4.70"

[[record]]
molecule_smiles = "COC(=O)c1c[nH]c2ccccc12"
assay_system = "Bromodomain-containing protein 4 (Homo sapiens, UniProt O60885)"
result = "< 4.00"

[[record]]
molecule_smiles = "C[C@H]1Nc2c(cccc2N2CCCc3cc(-c4cnn(C)c4)c(C(F)F)cc32)NC1=O"
assay_system = "Bromodomain-containing protein 4 (Homo sapiens, UniProt O60885)"
result = "< 4.70"

